Entry source: PubChem BioAssay (EPA / NIEHS)

experiment: CCTE_Deisenroth_AIME_384WELL_CTox_Inactive: Cytotoxicity Assessment (CTOX) in CCTE's 384-well Estrogen Receptor Transactivation Assay without AIME metabolic competence (metabolism negative), Deisenroth Lab (AID 2284039);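 further: cell viability via live-cell protease substrate cleaved to fluorescent probe; cells exposed 24 h to medium preincubated 2 h with alginate-water beads without S9; loss of fluorescence signal means loss of viability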
Records with an inconclusive call do not appear. Activity calls are given as the source filed them. How the source made its calls: active means hit-call score of the fitted dose curve at least 0.9, where 1 is the maximum; inconclusive means response in the unintended direction; inactive means score below 0.9.
Give your call using only these classes: class 1 (active), class 0 (inactive)

[Q] Dear all, I need the recorded test outcome for Cc1[nH]nc2c1N=C(c1ccccc1Cl)c1cc([N+](=O)[O-])ccc1N2 , thank you.
[A] class 1

[Q] Dear all, I need the recorded test outcome for CC(C)[C@@H]1CC[C@@H](C)C[C@H]1O , thank you.
[A] class 0

[Q] Dear all, I need the recorded test outcome for CCCCC(CC)C(=O)O (configuration not stated) , thank you.
[A] class 0

[Q] Dear all, I need the recorded test outcome for CCCCCCCCCC=CCC1CC(=O)OC1=O (configuration not stated) , thank you.
[A] class 0

[Q] Dear all, I need the recorded test outcome for Cc1cc(Cc2cc(C)cc(C(C)(C)C)c2O)c(O)c(C(C)(C)C)c1 , thank you.
[A] class 1

[Q] Dear all, I need the recorded test outcome for Cc1ccc(S(=O)(=O)O)cc1 , thank you.
[A] class 0

[Q] Dear all, I need the recorded test outcome for CCC(C)c1ccccc1O (configuration not stated) , thank you.
[A] class 1

[Q] Dear all, I need the recorded test outcome for CCCCCCCCCCCC , thank you.
[A] class 1

[Q] Dear all, I need the recorded test outcome for COc1cc([N+](=O)[O-])ccc1N , thank you.
[A] class 1

[Q] Dear all, I need the recorded test outcome for NC(=NCCCCCCN=C(N)/N=C(\N)Nc1ccc(Cl)cc1)/N=C(\N)Nc1ccc(Cl)cc1 , thank you.
[A] class 1

[Q] Dear all, I need the recorded test outcome for CC(O)COc1ccccc1 (configuration not stated) , thank you.
[A] class 0

[Q] Dear all, I need the recorded test outcome for CCCCCCCCCCCCOC(=O)c1cc(O)c(O)c(O)c1 , thank you.
[A] class 1

* * *

biological target: CCAAT/enhancer-binding protein beta (Homo sapiens); assay: ATG_C_EBP_CIS: Attagene CIS-FACTORIAL HepG2 Assay for human CCAAT/Enhancer Binding Protein (C/EBP) beta (AID 2282927); conditions: HepG2 Attagene cis-factorial transcription factor reporter; actives raise or lower the signal
The source made the active and inactive calls. How the source made its calls: active means hit-call score of the fitted dose curve at least 0.9, where 1 is the maximum; inactive means score below 0.9.
Give your call using only these classes: Y (active), N (inactive)

[Q] Dear all, I need the recorded test outcome for O=S(=O)(O)c1ccc2cc(O)ccc2c1 , thank you.
[A] N

[Q] Dear all, I need the recorded test outcome for Cc1cc(C(=C2C=CC(=Nc3ccc(S(=O)(=O)O)cc3)C=C2)c2ccc(Nc3ccc(S(=O)(=O)O)cc3)cc2)cc(S(=O)(=O)O)c1N , thank you.
[A] N

[Q] Dear all, I need the recorded test outcome for COC(=O)C(F)(F)C(F)(F)C(F)(F)F , thank you.
[A] N

[Q] Dear all, I need the recorded test outcome for CC(C)(C)c1ccc(CCC=O)cc1 , thank you.
[A] N

[Q] Dear all, I need the recorded test outcome for COC(O)c1ccccc1 (stereo unspecified) , thank you.
[A] N

[Q] Dear all, I need the recorded test outcome for O=C(Nc1ccc(Cl)c(Cl)c1)c1cc(Cl)cc(Cl)c1O , thank you.
[A] N

[Q] Dear all, I need the recorded test outcome for CCCCCCCCCCCC(=O)NCCCN(C)C , thank you.
[A] N

[Q] Dear all, I need the recorded test outcome for CC1=CC(=O)c2ccccc2C1=O , thank you.
[A] N

[Q] Dear all, I need the recorded test outcome for Cc1ccc(N=Nc2c(O)ccc3ccccc23)c(C)c1 , thank you.
[A] N

[Q] Dear all, I need the recorded test outcome for CC1CCC(CO)CC1 (stereo unspecified) , thank you.
[A] N

[Q] Dear all, I need the recorded test outcome for O=C1NS(=O)(=O)c2ccccc21 , thank you.
[A] N

[Q] Dear all, I need the recorded test outcome for CCCCCCCCCCCCCCCCCC[N+](C)(C)Cc1ccccc1 , thank you.
[A] Y

[Q] Dear all, I need the recorded test outcome for C=CC(C)(CCC=C(C)C)OC(C)=O (stereo unspecified) , thank you.
[A] N

[Q] Dear all, I need the recorded test outcome for Nc1ccn([C@@H]2O[C@H](CO)[C@@H](O)C2O)c(=O)n1 (stereo partly specified) , thank you.
[A] N

[Q] Dear all, I need the recorded test outcome for O=P(O)(O)CCC(F)(F)C(F)(F)C(F)(F)C(F)(F)C(F)(F)C(F)(F)C(F)(F)C(F)(F)F , thank you.
[A] N

[Q] Dear all, I need the recorded test outcome for CCOC(OCC)C(=O)c1ccccc1 , thank you.
[A] N

[Q] Dear all, I need the recorded test outcome for CC(C)[C@@H]1CC[C@@H](C)C[C@H]1O , thank you.
[A] N

[Q] Dear all, I need the recorded test outcome for O=CC(F)(F)C(F)(F)C(F)(F)C(F)F , thank you.
[A] N

[Q] Dear all, I need the recorded test outcome for OCCN1CN(CCO)CN(CCO)C1 , thank you.
[A] N

[Q] Dear all, I need the recorded test outcome for O=S(=O)(O)C(F)(F)C(F)(F)C(F)(F)C(F)(F)C(F)(F)C(F)(F)C(F)(F)C(F)(F)C(F)(F)C(F)(F)F , thank you.
[A] N

[Q] Dear all, I need the recorded test outcome for C[C@]12CC[C@@H]3c4ccc(O)cc4CC[C@H]3[C@@H]1CC[C@@H]2OC(=O)CCC1CCCC1 , thank you.
[A] Y

[Q] Dear all, I need the recorded test outcome for Clc1ccc(Nc2nnc(Cc3ccncc3)c3ccccc23)cc1 , thank you.
[A] N

[Q] Dear all, I need the recorded test outcome for O=S(=O)(c1ccc(OCc2ccccc2)cc1)c1ccccc1O , thank you.
[A] Y

[Q] Dear all, I need the recorded test outcome for CCCCN(C)C , thank you.
[A] N

[Q] Dear all, I need the recorded test outcome for CCC(C)c1ccccc1O (stereo unspecified) , thank you.
[A] N

[Q] Dear all, I need the recorded test outcome for O=C1OC(=O)C(F)(F)C1(F)F , thank you.
[A] N
